# Tested on: Amaranthus
# procedure_summary: Pre-emergence test
# Assay type: in vivo
# measurement_context: Amaranthus, 504 h, greenhouse, 1000 g of ai./ha, after three weeks, read-out: degree of damage to the plants (% damage), Amaranthus
readout_kind: pest or weed control at 1000 g/ha (%)
Note: unit % is implicit; provide only the numeric part.

input: Return pest or weed control at 1000 g/ha (reported value) for this compound: CCC(COc1ccccc1)Nc1nc(N)nc(C(F)(F)F)n1 (centres unmarked) [Example 2]
output: 100

input: Return pest or weed control at 1000 g/ha (reported value) for this compound: CCC(CCc1ccccc1)Nc1nc(N)nc(C(F)(F)F)n1 (centres unmarked) [Example 41]
output: 100

input: Return pest or weed control at 1000 g/ha (reported value) for this compound: CCC(CCc1ccccn1)Nc1nc(N)nc(C(C)(C)F)n1 (centres unmarked) [Example 22]
output: 95

input: Return pest or weed control at 1000 g/ha (reported value) for this compound: CCC(CCc1ccccn1)Nc1nc(N)nc(C(C)F)n1 (centres unmarked) [Example 21]
output: 95

input: Return pest or weed control at 1000 g/ha (reported value) for this compound: CCC(CCc1ccsc1)Nc1nc(N)nc(C(C)(C)F)n1 (centres unmarked) [Example 33]
output: 100

---

# Test system: Abutilon
# procedure_summary: Pre-emergence test
# Assay type: in vivo
# measurement_context: Abutilon, 504 h, greenhouse, 1000 g of ai./ha, after three weeks, read-out: degree of damage to the plants (% damage), Abutilon
Give measured pest or weed control at 1000 g/ha for each item. Keep answers brief.
Note: unit % is implicit; provide only the numeric part.

input: Return pest or weed control at 1000 g/ha (reported value) for this compound: CCC(CCc1ccsc1)Nc1nc(N)nc(C(C)(C)F)n1 (centres unmarked)
output: 90

input: Return pest or weed control at 1000 g/ha (reported value) for this compound: CCC(CCc1ccccn1)Nc1nc(N)nc(C(C)F)n1 (centres unmarked)
output: 90

input: Return pest or weed control at 1000 g/ha (reported value) for this compound: CCC(COc1ccccc1)Nc1nc(N)nc(C(F)(F)F)n1 (centres unmarked)
output: 80

input: Return pest or weed control at 1000 g/ha (reported value) for this compound: CCC(CCc1ccccn1)Nc1nc(N)nc(C(C)(C)F)n1 (centres unmarked)
output: 100

input: Return pest or weed control at 1000 g/ha (reported value) for this compound: CCC(CCc1ccccc1)Nc1nc(N)nc(C(F)(F)F)n1 (centres unmarked)
output: 100
